Data origin, for the record: paper PMC12221113

Catalogue of pIC50 readings, one per entry.
target: KLK6 (Homo sapiens, UniProt Q92876); assay: KLK6 fluorogenic enzyme inhibition assay (Boc-QAR-AMC)
pIC50: −log10 of the molar value.
MEASURED_QUANTITY: pIC50

# SMILES_REPR, VALUE_MEASURED
rows = [
    ("COc1ccccc1-c1nc(-c2ccccc2OC)n(-c2ccc(C(=O)O)cc2)n1", "< 4.30"),
    ("O=C(O)c1ccc(-n2nc(-c3ccccc3)nc2-c2ccccc2O)cc1", "< 4.30"),
    ("CC(=O)Oc1ccccc1-c1nc(-c2ccccc2OC(C)=O)n(-c2ccc(C(=O)O)cc2)n1", "< 4.30"),
    ("COc1ccc(-c2nc(-c3ccccc3O)n(-c3ccc(C(=O)O)cc3)n2)cc1", "< 4.30"),
    ("O=C(O)c1ccc(-n2nc(-c3ccccc3O)nc2-c2ccc(O)cc2O)cc1", "< 4.30"),
    ("COc1ccc(-c2nc(-c3ccccc3O)nn2-c2ccc(C(=O)O)cc2)c(O)c1", "< 4.30"),
]

###

molecular target: KLK8 (Homo sapiens, UniProt O60259); test: KLK8 fluorogenic enzyme inhibition assay (Boc-VPR-AMC); details: IC50 KLK8, initial screening of an in‐house array of 1,2,4‐triazole derivatives
pIC50: −log10 of the molar value.

# SMILES_REPR, pIC50
data = [
    ("O=C(O)c1ccc(-n2nc(-c3ccccc3O)nc2-c2ccccc2O)cc1", "~4.52"),
]

###

target: KLK5 (Homo sapiens); assay: Selectivity screening, KLK5; conditions: read-out: percentage of inhibition KLK5
Sequence (Q9Y337 67-293 limits assumed): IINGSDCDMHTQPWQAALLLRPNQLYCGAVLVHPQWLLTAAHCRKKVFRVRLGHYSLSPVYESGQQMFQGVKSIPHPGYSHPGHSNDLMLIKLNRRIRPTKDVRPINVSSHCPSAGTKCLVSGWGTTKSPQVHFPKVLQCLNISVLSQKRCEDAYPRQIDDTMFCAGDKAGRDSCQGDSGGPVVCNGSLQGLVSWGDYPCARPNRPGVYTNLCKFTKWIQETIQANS
MEASURED_QUANTITY: inhibition at 50 µM (%)

# COMPOUND, UNIT_ABBREV, VALUE_MEASURED
records = [
    ("O=C(O)c1cccc(-n2nc(-c3ccccc3O)nc2-c2ccccc2O)c1 [3b]", "%", 98.1),
    ("O=C(c1ccccc1)n1nc(-c2ccccc2O)nc1-c1ccccc1O [3e]", "%", 98.8),
    ("O=C(NC(Cc1c[nH]c2ccccc12)C(=O)O)c1ccc(-n2nc(-c3ccccc3O)nc2-c2ccccc2O)cc1 (stereo not drawn) [3lb]", "%", 98.2),
    ("O=C(O)c1ccc(-n2nc(-c3ccccc3O)nc2-c2ccccc2O)cc1 [3a, Deferasirox]", "%", 85.1),
    ("O=C(O)C1CCCN1C(=O)c1ccc(-n2nc(-c3ccccc3O)nc2-c2ccccc2O)cc1 (stereo not drawn) [3mb]", "%", 95.1),
    ("Oc1ccc(-n2nc(-c3ccccc3O)nc2-c2ccccc2O)cc1 [3r]", "%", 85.5),
]

###

target: KLK8 (Homo sapiens, UniProt O60259); assay: KLK8 fluorogenic enzyme inhibition assay (Boc-VPR-AMC); conditions: read-out: Pseudo-IC50 of Fe3+ on KLK8; Figure S4 C, curve fit y=(100*M0)/(M0+M2)
pIC50: −log10 of the molar value.
MEASURED_QUANTITY: pIC50

# SMILES_REPR, VALUE_MEASURED
records = [
    ("[Cl][Fe]([Cl])[Cl]", 2.95),
]

###

biological target: KLK6 (Homo sapiens, UniProt Q92876); experiment: KLK6 fluorogenic enzyme inhibition assay (Boc-QAR-AMC); conditions: read-out: Pseudo-IC50 of Fe3+ on KLK6; Figure S4 B, curve fit y=(100*M0)/(M0+M2)
MEASURED_QUANTITY: IC50

# SMILES_REPR, TARGET_OR_TEST_SYSTEM, VALUE_MEASURED
data = [
    ("[Cl][Fe]([Cl])[Cl]", "KLK6 (Homo sapiens, UniProt Q92876)", "1.32 mM"),
]

###

Target: KLK13 (Homo sapiens, UniProt Q9UKR3)
Sequence (Q9UKR3 26-277 limits assumed): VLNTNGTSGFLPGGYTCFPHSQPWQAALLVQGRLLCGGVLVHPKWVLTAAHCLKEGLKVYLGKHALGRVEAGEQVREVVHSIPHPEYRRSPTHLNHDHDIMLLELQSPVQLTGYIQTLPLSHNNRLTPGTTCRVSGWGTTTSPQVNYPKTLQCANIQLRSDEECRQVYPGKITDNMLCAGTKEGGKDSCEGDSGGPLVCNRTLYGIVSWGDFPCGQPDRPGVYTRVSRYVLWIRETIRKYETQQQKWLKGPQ
Experiment: Selectivity screening, KLK13
Conditions: read-out: percentage of inhibition KLK13
Measured inhibition at 50 µM values are reported for all entries that follow.

# COMPOUND, TARGET_OR_TEST_SYSTEM, inhibition at 50 µM [%]
data = [
    ("Oc1ccc(-n2nc(-c3ccccc3O)nc2-c2ccccc2O)cc1", "KLK13 (Homo sapiens, UniProt Q9UKR3)", 98.3),
    ("O=C(O)C1CCCN1C(=O)c1ccc(-n2nc(-c3ccccc3O)nc2-c2ccccc2O)cc1 (centres unmarked)", "KLK13 (Homo sapiens, UniProt Q9UKR3)", 85.2),
    ("O=C(c1ccccc1)n1nc(-c2ccccc2O)nc1-c1ccccc1O", "KLK13 (Homo sapiens, UniProt Q9UKR3)", 97.1),
    ("O=C(NC(Cc1c[nH]c2ccccc12)C(=O)O)c1ccc(-n2nc(-c3ccccc3O)nc2-c2ccccc2O)cc1 (centres unmarked)", "KLK13 (Homo sapiens, UniProt Q9UKR3)", 98.1),
    ("O=C(O)c1ccc(-n2nc(-c3ccccc3O)nc2-c2ccccc2O)cc1", "KLK13 (Homo sapiens, UniProt Q9UKR3)", 95.1),
]

###

target: KLK14 (Homo sapiens); construct: purchased R&D Systems; experiment: Selectivity screening, KLK14; format: biochemical; settings: 50 μM compound, without Fe3+; read-out: percentage of inhibition KLK14
Sequence (Q9P0G3 41-267): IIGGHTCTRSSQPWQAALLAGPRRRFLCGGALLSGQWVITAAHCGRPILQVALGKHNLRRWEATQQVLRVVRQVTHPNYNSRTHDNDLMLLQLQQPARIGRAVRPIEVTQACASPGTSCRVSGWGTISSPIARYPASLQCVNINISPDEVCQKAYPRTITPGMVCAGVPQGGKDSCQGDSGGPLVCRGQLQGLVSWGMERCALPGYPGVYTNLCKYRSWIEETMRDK
Decision: inhibition at 50 µM >= 90% yields fulfilled, all other cases yield not fulfilled.

# MOLECULE, CLASS_ASSIGNMENT
measured = [
    ("Oc1ccc(-n2nc(-c3ccccc3O)nc2-c2ccccc2O)cc1", "not fulfilled"),
    ("O=C(NC(Cc1c[nH]c2ccccc12)C(=O)O)c1ccc(-n2nc(-c3ccccc3O)nc2-c2ccccc2O)cc1 (centres unmarked)", "fulfilled"),
    ("O=C(O)c1ccc(-n2nc(-c3ccccc3O)nc2-c2ccccc2O)cc1", "fulfilled"),
    ("O=C(O)c1cccc(-n2nc(-c3ccccc3O)nc2-c2ccccc2O)c1", "fulfilled"),
]

###

target: KLK8 (Homo sapiens, UniProt O60259); assay: KLK8 fluorogenic enzyme inhibition assay (Boc-VPR-AMC); details: read-out: percentage of inhibition KLK8
MEASURED_QUANTITY: inhibition at 50 µM (%)

# MOLECULE, VALUE_MEASURED
data = [
    ("O=C(O)C1CCCN1C(=O)c1ccc(-n2nc(-c3ccccc3O)nc2-c2ccccc2O)cc1 (stereo not shown) [3mb]", 63.1),
    ("O=C(NC(Cc1c[nH]c2ccccc12)C(=O)O)c1ccc(-n2nc(-c3ccccc3O)nc2-c2ccccc2O)cc1 (stereo not shown) [3lb]", 50.2),
    ("O=C(O)c1ccc(-n2nc(-c3ccccc3O)nc2-c2ccccc2O)cc1 [3a, Deferasirox]", 70.1),
    ("O=C(O)c1cccc(-n2nc(-c3ccccc3O)nc2-c2ccccc2O)c1 [3b]", 62.1),
]

###

target: KLK4 (Homo sapiens); construct: purchased R&D Systems; assay: Selectivity screening, KLK4; assay type: biochemical; conditions: 50 μM compound, without Fe3+; read-out: percentage of inhibition KLK4
Sequence (Q9Y5K2 31-254): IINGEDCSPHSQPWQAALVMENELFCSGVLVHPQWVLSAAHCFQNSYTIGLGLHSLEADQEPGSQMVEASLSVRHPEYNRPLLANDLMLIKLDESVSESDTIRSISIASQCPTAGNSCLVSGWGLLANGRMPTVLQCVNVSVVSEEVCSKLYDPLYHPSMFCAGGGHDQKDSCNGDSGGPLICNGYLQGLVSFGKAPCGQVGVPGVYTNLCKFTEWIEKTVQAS
Tick 1 if inhibition at 50 µM is 80% or greater. Tick 0 if inhibition at 50 µM is less than 80%.

# COMPOUND, CLASS_ASSIGNMENT
records = [
    ("O=C(NC(Cc1c[nH]c2ccccc12)C(=O)O)c1ccc(-n2nc(-c3ccccc3O)nc2-c2ccccc2O)cc1 (stereo not drawn) [3lb]", 1),
    ("O=C(O)C1CCCN1C(=O)c1ccc(-n2nc(-c3ccccc3O)nc2-c2ccccc2O)cc1 (stereo not drawn) [3mb]", 0),
    ("Oc1ccc(-n2nc(-c3ccccc3O)nc2-c2ccccc2O)cc1 [3r]", 1),
    ("O=C(c1ccccc1)n1nc(-c2ccccc2O)nc1-c1ccccc1O [3e]", 0),
    ("O=C(O)c1cccc(-n2nc(-c3ccccc3O)nc2-c2ccccc2O)c1 [3b]", 1),
]

###

Target: KLK8 (Homo sapiens, UniProt O60259)
Sequence (O60259 33-260): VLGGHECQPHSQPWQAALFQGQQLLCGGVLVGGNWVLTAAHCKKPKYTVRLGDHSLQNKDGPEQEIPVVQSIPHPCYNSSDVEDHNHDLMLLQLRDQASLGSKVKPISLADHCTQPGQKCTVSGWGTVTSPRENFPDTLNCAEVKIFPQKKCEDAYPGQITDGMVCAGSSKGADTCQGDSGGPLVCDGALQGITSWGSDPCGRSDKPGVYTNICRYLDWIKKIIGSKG
Experiment: KLK8 fluorogenic enzyme inhibition assay (Boc-VPR-AMC)
Below, each entry is listed alongside its reported IC50.

# SMILES_REPR, UNIT_ABBREV, RELATION_QUALIFIER, IC50
rows = [
    ("Oc1ccccc1-c1nc(-c2ccccc2O)n(-c2ccc(-c3nnn[nH]3)cc2)n1", "µM", "=", 44.1),
    ("COC(=O)CNC(=O)c1ccc(-n2nc(-c3ccccc3O)nc2-c2ccccc2O)cc1", "µM", ">", 50),
    ("O=C(O)c1cccc(-n2nc(-c3ccccc3O)nc2-c2ccccc2O)c1", "µM", "=", 21.4),
    ("COc1ccc(-c2nc(-c3ccccc3O)n(-c3ccc(C(=O)O)cc3)n2)cc1", "µM", "=", 33.4),
    ("O=C(O)[C@H]1CC[C@H](n2nc(-c3ccccc3O)nc2-c2ccccc2O)CC1", "µM", ">", 50),
]
